Each recorded value in this set is attributed to paper PMC5540273.

test system: PKMYT1; conditions: concentration: 1 μM, replicates: in singlicate; n = 1;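 note: KINOMEscan kinase panel screen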
# %Inh values compiled below

- CC[C@@H]1CO[C@H](C(=O)Nc2ccccc2)CN1c1cc(-c2ccc3c(N)n[nH]c3c2)nc(NC)n1 [GSK2376236]: 0%

Task: Requested field: %Inh. Item: CCCCc1nn2ncccc2c1-c1ccnc(NC2CC2)n1 [GW684374]
Result: 0%

Task: Again, but for Cc1ccc(NC(=O)Nc2ccccc2)cc1-c1ccc(C(=O)Nc2ccncc2)cc1 [GSK1398471]
Result: 28%

Task: What about CS(=O)(=O)CCNCc1nc(-c2ccc3ncnc(Nc4ccc5c(cnn5Cc5ccccc5)c4)c3c2)cs1.Cl.Cl [GW569716] ?
Result: 6%

Task: Another compound to look at: O=C1NC(=O)C(c2ccc(Cl)cc2)=C1Nc1cccc(Cl)c1 [SB-317651]
Result: 0%

Task: // query: Cc1c(Cn2c3ccccc3n3c(=O)cc(N4CCOCC4)nc23)cccc1C(F)(F)F [GSK2306394]
Result: 0%

Task: Cc1ccc(-c2nc(Nc3ccncc3)c3ccccc3n2)s1 [GSK189015] ?
Result: 19%

Task: How about this compound: CNc1nc(-c2ccc3c(N)n[nH]c3c2)cc(N2C[C@@H](C(=O)Nc3ccccc3)CC[C@H]2C)n1 [GSK2298859]
Result: 0%

* * *

system: MST1; construct: gene STK4; conditions: concentration: 1 μM, replicates: in singlicate; n = 1
Measured %Inh accompanies every entry in the list below.
Enter your answer as a number in %; do not include the unit.

Record excerpt, results attached:
- Cc1ccccc1-c1cc(-c2c[nH]nc2-c2ccccn2)ccn1 [GW680061]: 0
- COc1ccc(CSc2nnc(-c3ccc4ncsc4c3)o2)cc1C(F)(F)F: 0
- COc1ccc(Nc2nccc(N3CCC(NC(=O)c4cc5ccccc5s4)C3)n2)cc1 (stereo not drawn) [GSK1379738]: 0
- COc1ccc2cc(-c3nc(-c4ccccc4C(C)C)[nH]c3-c3ccncc3)ccc2c1 [SB-660566]: 7
- CNC(=O)c1ccc(C)c(-n2c(C)cc(OCc3ccc(F)cc3F)c(Br)c2=O)c1: 0

Turning now to a further compound:
Task: Value wanted: %Inh (MST1) of entry COc1ccc(Nc2nccc(N3CCC(NC(=O)C(C)c4ccc(Cl)cc4)CC3)n2)cc1 (stereo not drawn) [GSK1379812]
Result: 44

* * *

Measured %Inh of individual entries
test system: FRK; conditions: concentration: 1 μM, replicates: in singlicate; n = 1
Please state the value followed by its unit.

* O=C1NC(=O)C(c2ccc(Cl)cc2)=C1Nc1ccc(O)cc1 | 0%
* Cc1nccc(-c2c(-c3ccc(F)cc3)ncn2CCCN2CCOCC2)n1.Cl | 2%
* COc1ccc(CSc2nnc(-c3ccc4nccn4c3)o2)cc1C(F)(F)F | 0%
* COc1ccc(Nc2nccc(NCCNC(=O)Nc3cc(C)ccc3C)n2)cc1 | 0%
* Cc1ccc(NC(=O)Nc2ccc(Cl)c(C(F)(F)F)c2)cc1-c1ccc(C(=O)Nc2ccncc2)cc1 | 42%
* CN1c2ccc(-c3ccc(C(N)=O)cc3)cc2-c2[nH]ncc2S1(=O)=O | 0%
* c1ccc(-c2ccnc3[nH]ccc23)cc1 | 0%
* CNCc1ccc2nc(NC(=O)c3ccc(C(C)(C)C)cc3)cn2c1 | 1%

Below: the item to evaluate.
Task: Look up %Inh: `O=C(Nc1n[nH]c2nc(-c3cccs3)c(Br)cc12)C1CC1`
Result: 0%

* * *

system: EPHA1; settings: concentration: 1 μM, replicates: in singlicate; n = 1
Sorting guide: entries reporting %Inh beneath 8% go in the condition met pile, the rest go in the condition not met pile.

Solved entries:
• COc1ccc(Nc2nccc(-c3ccc(NC(=O)c4cc5cc(F)ccc5[nH]4)cc3)n2)cc1 [GSK1229496] = condition met
• Fc1ccc(-c2nc[nH]c2-c2ccncc2)cc1 [SB-217360] = condition met
• Cc1cccc2c(-c3ccncn3)c(-c3ccc(F)cc3)nn12 [GW515532] = condition not met
• CSc1ccc(-c2nc3n(c2-c2ccncc2)CCC3)cc1 [SKF-105561] = condition not met
• CCCCc1nn2ncccc2c1-c1ccnc(NC2CC2)n1 [GW684374] = condition not met

Task: Here's an entry: c1ccc(-c2ccnc3[nH]ccc23)cc1 [SB-693578] . Is its %Inh below 8%?
Result: condition not met

Task: Now consider Nc1nccc(-c2c(-c3ccc(F)cc3)ncn2C2CCN(Cc3ccccc3)CC2)n1 [SB-219980] .
Result: condition met

Task: Now give it for `CC(=O)c1c(C)c2cnc(Nc3ccc(N4CCNCC4)cn3)nc2n(C2CCCC2)c1=O` too.
Result: condition not met

* * *

Overview of reported %Inh across a group of compounds:
tested on: BRAF; conditions: concentration: 1 μM, replicates: in singlicate; n = 1
Please state the figure in %; there is no need to write the unit.

Field: example entries. Status: answers known.
• Nc1ncnc2occ(-c3ccc4c(c3)CCN4C(=O)Cc3cc(F)ccc3F)c12 [GSK2645446] = 4
• Cn1cncc1C(=O)NC1CCN(c2ccnc(Nc3ccc(F)cc3)n2)C1 (stereo not shown) [GSK1379717] = 0
• Cc1c(Cn2c(C)c(C)n3c(=O)cc(N4CCOCC4)nc23)cccc1C(F)(F)F [GSK2328680] = 0

Continue with the compound presented below.
Task: Please report the recorded %Inh for CC(=O)c1cccc(NC(=O)NC2CCN(c3ccnc(Nc4ccc(F)cc4)n3)C2)c1 (stereo not shown) [GSK1379710] .
Result: 0

* * *

system: TGFBR1; conditions: concentration: 1 μM, replicates: in singlicate; n = 1
Measured metric: %Inh
Form entry: enter the amount, then its unit.

- COc1ccc2cc(-c3nc(-c4ccccc4C(C)C)[nH]c3-c3ccncc3)ccc2c1: 80%
- COC(=O)c1cccc(NC(=O)NC2CCN(c3ccnc(Nc4ccc(F)cc4)n3)C2)c1 (centres unmarked): 0%
- Cl.Cl.Cl.N#Cc1ccc(CCNc2nccc(-c3cccc(CN4CCNCC4)c3)n2)cc1: 0%
- COc1ccc(Nc2nccc(N3CCC(NC(=O)C(C)c4ccc(Cl)cc4)C3)n2)cc1 (centres unmarked): 23%

Task: What does the data say about its %Inh? Entry: `c1ccc(-c2ccnc3[nH]ccc23)cc1`
Result: 0%

* * *

system: GSK3B; conditions: 1 µM; n = 1
Measured metric: %Inh
Record the result as a number with its unit.

Before answering, review these 4 worked examples.
• COc1ccc(CSc2nnc(-c3ccc4c(c3)CCO4)o2)cc1 = 0%
• O=C(Nc1n[nH]c2nc(-c3cccs3)c(Br)cc12)C1CC1 = 52%
• O=C(Nc1n[nH]c2nc(-c3cccs3)c(Br)cc12)C1CCCC1 = 81%
• COc1cccc(C2=C(Nc3cc(Cl)c(O)c(Cl)c3)C(=O)NC2=O)c1 = 33%

Task: Can you share its %Inh? I mean this compound: `O=C1NC(=O)C(c2ccc(Cl)cc2)=C1Nc1cccc(Cl)c1`
Result: 15%

* * *

tested on: GRK4; details: concentration: 1 μM, replicates: in singlicate; n = 1
Measured metric: %Inh (%)
Numbers only; they are read as %.

Please review the entries below; each comes with its answer.
• CCc1ccc(-c2ccc3c(c2)-c2n[nH]cc2S(=O)(=O)N3C)cc1 = 0
• Cc1ccc(NC(=O)Nc2ccc(Cl)c(C(F)(F)F)c2)cc1-c1ccc(C(=O)Nc2ccncc2)cc1 [GSK1398470] = 10
• COc1ccc(Nc2nccc(N3CCC(NC(=O)c4cc5ccccc5s4)C3)n2)cc1 (stereo not drawn) [GSK1379738] = 0
• Cl.Cl.Cl.N#Cc1ccc(CCNc2nccc(-c3cccc(CN4CCNCC4)c3)n2)cc1 [GSK2137462] = 0
• COc1ccc(CSc2nnc(-c3ccc4ncsc4c3)o2)cc1C(F)(F)F = 18
• Cc1ccc(NC(=O)Nc2ccccc2)cc1-c1ccc(C(=O)Nc2ccncc2)cc1 [GSK1398471] = 0
• CNC(=O)c1ccc(C)c(-n2c(C)cc(OCc3ccc(F)cc3F)c(Br)c2=O)c1 = 2
• CCn1c(-c2ccccc2)nc2cnccc21 [SB-733416] = 29
• O=C(Nc1n[nH]c2nc(-c3ccco3)c(Br)cc12)C1CCN(Cc2ccccc2)C1.O=C(O)[C@H](O)[C@@H](O)C(=O)O (stereo not drawn) [SB-742034] = 11
• COC(=O)c1cccc(NC(=O)NC2CCN(c3ccnc(Nc4ccc(F)cc4)n3)C2)c1 (stereo not drawn) [GSK1379725] = 0

Task: Return reported %Inh; argument: `CC(=O)c1c(C)c2cnc(Nc3ccn(C)n3)nc2n(C2CCCC2)c1=O`
Result: 0

Task: // query: Nc1nccc(-c2c(-c3ccc(F)cc3)ncn2C2CCN(Cc3ccccc3)CC2)n1 [SB-219980]
Result: 0

Task: Moving on to `CN1c2ccc(-c3ccc(C(N)=O)cc3)cc2-c2[nH]ncc2S1(=O)=O`
Result: 0

Task: Repeat with O=C(Nc1n[nH]c2nc(-c3cccs3)c(Br)cc12)C1CC1 [SB-735297]
Result: 0

Task: Consider next the compound CCn1c(-c2c(N)noc2C)nc2cnccc21 [SB-737856] in the same way.
Result: 6

Task: Lookup Cc1ccc(NC(=O)Nc2ccccc2F)cc1-c1ccc(C(=O)Nc2ccncc2)cc1 [GSK1398477]
Result: 30

Task: Please give the result for COc1nccc(-c2c(-c3ccc(F)cc3)ncn2CCCN2CCOCC2)n1 [SB-282852] too.
Result: 23

Task: And for Cc1cccc2c(-c3ccncn3)c(-c3ccc(F)cc3)nn12 [GW515532] ?
Result: 12
